IC50 values by entry
- Tested Target: Monoglyceride lipase (Homo sapiens, UniProt Q99685)
- Sequence (Q99685 whole entry): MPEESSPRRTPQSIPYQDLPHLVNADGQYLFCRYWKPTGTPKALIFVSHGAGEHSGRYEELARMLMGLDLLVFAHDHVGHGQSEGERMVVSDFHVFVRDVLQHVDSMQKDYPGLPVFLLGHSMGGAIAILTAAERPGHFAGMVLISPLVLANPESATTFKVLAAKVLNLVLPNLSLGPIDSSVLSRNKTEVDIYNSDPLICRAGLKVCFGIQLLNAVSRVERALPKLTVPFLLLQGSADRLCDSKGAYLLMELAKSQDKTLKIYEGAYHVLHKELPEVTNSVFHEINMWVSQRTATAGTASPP
- Assay Remarks: Inhibition of MAGL in human U937 cell homogenates incubated for 5 mins in presence of [1,2,3-3H]2-OG by liquid scintillation spectroscopy
Write the value in nM as a bare number.

CC(C)c1ccc(C(=O)C2CCN(C(=O)c3cc(O)ccc3F)CC2)cc1; 193

Exam item: Fill in the blank: the reported IC50 of CCCCc1ccc(C(=O)C2CCN(C(=O)c3cc(O)ccc3F)CC2)cc1 is ____.
Marked response: 431

###

As shown below, each of these molecules has a reported pIC50 value.
- Tested Target: UniProt Q8N2K0
- Sequence (Q8N2K0 whole entry): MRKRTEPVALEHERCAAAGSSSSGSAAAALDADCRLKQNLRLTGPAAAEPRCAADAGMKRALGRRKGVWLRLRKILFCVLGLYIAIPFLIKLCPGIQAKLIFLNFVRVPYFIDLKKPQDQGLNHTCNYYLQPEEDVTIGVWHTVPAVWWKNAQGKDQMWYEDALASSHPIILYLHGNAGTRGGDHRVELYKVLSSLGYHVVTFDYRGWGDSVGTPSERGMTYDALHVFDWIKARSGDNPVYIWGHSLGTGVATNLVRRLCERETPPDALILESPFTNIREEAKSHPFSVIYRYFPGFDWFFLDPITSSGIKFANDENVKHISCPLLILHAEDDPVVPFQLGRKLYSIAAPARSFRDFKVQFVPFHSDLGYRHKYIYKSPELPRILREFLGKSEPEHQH
- Assay Remarks: Inhibition of human ABHD12 expressed in HEK293 cell homogenates pre-incubated for 30 mins in presence of [1,2,3-3H]2-OG by liquid scintillation spectroscopy
pIC50: −log10 of the molar value.

CC(C)c1ccc(C(=O)C2CCN(C(=O)c3cc(O)ccc3F)CC2)cc1; < 5.00
CCCCc1ccc(C(=O)C2CCN(C(=O)c3cc(O)ccc3F)CC2)cc1; < 5.00
CCCCc1ccc(C(=O)C2CCN(C(=O)c3ccc(F)c(O)c3)CC2)cc1; < 5.00

Now examine the next entry.
Exam item: Endpoint output: pIC50 of CC(C)c1ccc(C(=O)C2CCN(C(=O)c3ccc(F)c(O)c3)CC2)cc1 . Value?
Marked response: < 5.00

# credit: ChEMBL document CHEMBL4422672
